B1: glmS ribozyme (parent)
chain: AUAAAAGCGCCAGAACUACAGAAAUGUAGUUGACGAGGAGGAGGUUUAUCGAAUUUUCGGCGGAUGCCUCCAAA

variants of: B1; test: self-cleavage kobs at 10000 uM GlcN6P; higher = faster cleavage; RNA array; conditions: with glucosamine-6-phosphate
This sample holds only a part of the variants without activity.
# self-cleavage kobs at 10000 uM GlcN6P >= 0.0001 s⁻¹ gives satisfied, anything below gives not satisfied

INSERT INTO assay_data (chain, labelvalue) VALUES
  ('AUAAACGCGCCAGAACUACAGAAAUGUAGUUGACGAGAAGGAGGUUUAUGGAAUUUUCGGCGGAUGUCUCCAAA [A6C G38A C50G C67U]', 'not satisfied'),
  ('AUAAAAGCGCCAGAACUACAGAAAUGUAGUUGACGAGGAGGAGGUUUAGCGAAUUUUCGAGUGAUGCCUCCAAA [U49G G60A C61G G62U]', 'not satisfied'),
  ('AUAAAAGCGCCAGAACUACAGAAAUGUAGUUGACGAGGAGGAGGUUUGUCGAAUUUUCGGCGGAGGCCUCCAAA [A48G U65G]', 'not satisfied'),
  ('AUAAAAGCGCCAGAACUACAGAAAUGUAGUUGACGAGGAGGAGGUUUAUCGAAUAUUAGGCGGAUGCCUCCAAA [U55A C58A]', 'satisfied'),
  ('AUAAAAGCGCCAGAGCUACAGAAAUGUAGUUGACGAGGAGGAGGUUUAUCGAAUUUUCGGCGGCUGCCUCCAAA [A15G A64C]', 'satisfied'),
  ('AUAAAAGCGUCAGAACUACAGAAAUGUAGUUGACGAGGAGGAGGUUUAUCGAAUUUUCGGCAGAUGCCUCCAAA [C10U G62A]', 'not satisfied'),
  ('AUAAAAGCGCCUGAACUACAGAAAUGUAAUUGACGAGGAGGAGGUUUAUCGUAUUUUCGGCGGAUGCCUCCAAA [A12U G29A A52U]', 'satisfied'),
  ('AUAAAAGCGCCAGAACUACAGAAAUGUAAUUGACGAGGAGGAGGUUUAUCGAAUCUUCGGCGGAUGCCUCCAAA [G29A U55C]', 'satisfied'),
  ('AUAAAAGCGCAAGAACUACAGAAAUGUAGAUGACGAGGAGGAGGUUUAUCGAAUUUUCGGCGGAUGCCUGCAAA [C11A U30A C70G]', 'not satisfied'),
  ('AUAAAAGCGCCAGAACUACAGAAAUGUAGUAAACGAGGAGGAGGUUUAUCGAAUUUUCGGCUGAUGCCUCCAAA [U31A G32A G62U]', 'not satisfied'),
  ('AUAAAAGCGCCAGAACUACAGAAAUGUAGUUGACGAGGAGGAGGUUUAUCGACUUUUCGGCGGGUGCCUCCAAA [A53C A64G]', 'satisfied'),
  ('AUAAAAGCGCCAGAACUACAGAAAUGUAGUUGACGAGGAGGAAGUUUAUCGAAUUUUCCGCGGAUGCCUCCAAA [G43A G59C]', 'not satisfied'),
  ('AUAAAAGCGCCAGAACUACAGAAAUGUAGUUGACGAGGAGGAGGUUUAUCGGAUUUUCGGCGGAAGCCGUCAAA [A52G U65A U69G C70U]', 'not satisfied'),
  ('AUAAAAGCGCCAGAAAUACAGAAAUGUAGGUGAUGAGGAGGAGGUUUAUCGAAUUUUCGGCGGAUGCCUCCAAA [C16A U30G C34U]', 'not satisfied'),
  ('AUAAAAGCGCCAGUACUACAGAAAUGUAGUUGACGAGGAGGAGGUAUAUCGAAUUUUCGGCGGAUGCCUCCAAA [A14U U46A]', 'satisfied'),
  ('AUAAAAGCGCCGGAACUACAGAAAUGUAGUUGACCAGGAGGAGGUUUAUCGAAUUUUCGGCGGAUGCCUCCAAA [A12G G35C]', 'not satisfied'),
  ('AUAAAAGCGCUAGCACUACAGAAAUGUAGUUGACGAGGAGGAGGUUUAUCGAAUUUUCGGCGGAUGCCUCCAAA [C11U A14C]', 'satisfied'),
  ('AUAAAAGCGCCAGAACUACAGAAAUGUAGUUGACGAGUAGCAGGUUUAUCGAAUUUUCGGCGGAUGCCUCCAAA [G38U G41C]', 'not satisfied'),
  ('AUAAAAGCGCCAGAACUACAGAAAUGUAGUUGACGCGGAGGAGGUUUAUCGAAUUUACGGCGGAUGCCUCCAAA [A36C U57A]', 'not satisfied'),
  ('AUAAAAGCCCCAGAAUUACAGAAAUGUAGUUGACGAGGAGGAGGUUGAUCGAAUUUUCGGUGGAUGCCUCCAAA [G9C C16U U47G C61U]', 'not satisfied'),
  ('AUAAAAGUGCCAGAACUACAGAAAUGUAGUCGACGAGGAGGAGGUUUAUCGUAUUUUCGGCGGAUGCCUCCAAA [C8U U31C A52U]', 'not satisfied'),
  ('AUAAAAGCGCUAGAACUACAGAAAUGUAUUUGACGAGGAUGAGGUUUAUCGAAUUUUCGGCUGAUGCCUCCAAA [C11U G29U G40U G62U]', 'not satisfied');
